Test system: ZR-75-1 cells
Experiment Description: CellTiter-Glo Luminescent Cell Viability Assay, ZR-75-1
Type: cell-based
Measurement Setup: Homo sapiens, ZR-75-1; breast cancer cell line; mean ± SD, n=3; read-out: EC50 ZR‐75‐1
Define the label as YES when EC50 is strictly less than 2 µM and as NO in all remaining cases.

INSERT INTO measurements (compound, class_name) VALUES
  ('C=CC(=O)Nc1ccccc1-c1cn(C2CCN(Cc3ccc(-c4nc5ccccn5c4-c4ccccc4)cc3)CC2)nn1', 'YES'),
  ('C=CC(=O)Nc1cc2c(cc1Cl)[nH]c(=O)n2C1CCN(Cc2ccc(-c3nc4ccccn4c3-c3ccccc3)cc2)CC1', 'YES'),
  ('C=CC(=O)Nc1ccc2[nH]c(=O)n(C3CCN(Cc4ccc(-c5nc6ccccn6c5-c5ccccc5)cc4)CC3)c2c1', 'YES'),
  ('C=CC(=O)Nc1ccc(-c2cn(C3CCN(Cc4ccc(-c5nc6ccccn6c5-c5ccccc5)cc4)CC3)nn2)cc1', 'NO'),
  ('NC1(c2ccc(-c3nc4ccn5c(=O)[nH]nc5c4cc3-c3ccccc3)cc2)CCC1 [MK‐2206, reference compound]', 'YES'),
  ('C=CC(=O)Nc1ccccc1-c1cn(C2CCN(Cc3ccc(-c4nc5ccccn5c4-c4ccccc4C)cc3)CC2)nn1', 'NO'),
  ('C=CC(=O)Nc1cccc(-c2cn(C3CCN(Cc4ccc(-c5nc6ccc(C)cn6c5-c5ccccc5)cc4)CC3)nn2)c1', 'NO'),
  ('C=CC(=O)Nc1cccc(-c2cn(C3CCN(Cc4ccc(-c5nc6ccccn6c5-c5cccc(C)c5)cc4)CC3)nn2)c1', 'NO');

----------
In this section, each of the compounds is paired with its reported pEC50.
Tested on: KU-19-19 cells
Experiment Description: CellTiter-Glo Luminescent Cell Viability Assay, KU-19-19
Format: cell-based
Measurement Setup: Homo sapiens, bladder cancer cell line, Akt1 E17K/E49K, mean ± SD, n=3
pEC50: −log10 of the molar value.
Property Label: pEC50

INSERT INTO measurements (compound, obs_value) VALUES
  ('NC1(C(=O)N[C@@H](CCO)c2ccc(Cl)cc2)CCN(c2ncnc3[nH]ccc23)CC1 [Capivasertib, reference compound]', 5.51),
  ('C=CC(=O)Nc1cccc(-c2cn(C3CCN(Cc4ccc(-c5nc6ccccn6c5-c5ccccc5C)cc4)CC3)nn2)c1', 5.11),
  ('C=CC(=O)Nc1cc2c(cc1Cl)[nH]c(=O)n2C1CCN(Cc2ccc(-c3nc4ccccn4c3-c3ccccc3)cc2)CC1', 4.63),
  ('C=CC(=O)Nc1cccc(-c2cn(C3CCN(Cc4ccc(-c5nc6cc[nH]c(=O)c6cc5-c5ccccc5)cc4)CC3)nn2)c1', 5.25),
  ('CC(C)NC[C@@H](C(=O)N1CCN(c2ncnc3c2[C@H](C)C[C@H]3O)CC1)c1ccc(Cl)cc1 [Ipatasertib, reference compound]', 5.37),
  ('C=CC(=O)Nc1cccc(-c2cn(C3CCN(Cc4ccc(-c5nc6ccccn6c5-c5ccccc5)cc4)CC3)nn2)c1', 4.91),
  ('C=CC(=O)Nc1ccc(-c2cn(C3CCN(Cc4ccc(-c5nc6ccccn6c5-c5ccccc5)cc4)CC3)nn2)cc1', 5.01),
  ('C=CC(=O)Nc1cccc(-c2cn(C3CCN(Cc4ccc(-c5nc6ccc(C)cn6c5-c5ccccc5)cc4)CC3)nn2)c1', 4.76),
  ('C=CC(=O)Nc1cccc(-c2cn(C3CCN(Cc4ccc(-c5nc6ccccn6c5-c5cccc(C)c5)cc4)CC3)nn2)c1', 5.02);

----------
Tgt: wild-type Akt1 (Homo sapiens)
Construct: made in house
Sequence (P31749 whole entry): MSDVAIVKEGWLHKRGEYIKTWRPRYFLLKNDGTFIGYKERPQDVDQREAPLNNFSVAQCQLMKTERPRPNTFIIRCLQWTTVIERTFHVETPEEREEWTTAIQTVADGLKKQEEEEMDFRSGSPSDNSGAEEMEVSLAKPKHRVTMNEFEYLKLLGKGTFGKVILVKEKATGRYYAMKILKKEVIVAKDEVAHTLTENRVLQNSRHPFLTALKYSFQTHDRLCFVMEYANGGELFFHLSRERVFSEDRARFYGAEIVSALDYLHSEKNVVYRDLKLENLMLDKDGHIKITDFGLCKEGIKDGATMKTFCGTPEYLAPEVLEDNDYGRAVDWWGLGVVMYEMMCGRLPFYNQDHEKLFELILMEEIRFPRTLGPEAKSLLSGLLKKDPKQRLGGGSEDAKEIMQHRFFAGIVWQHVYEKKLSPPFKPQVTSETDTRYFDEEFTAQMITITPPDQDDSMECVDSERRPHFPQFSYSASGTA
Experiment Description: LC-MS identification of covalent binders after co-incubation with Akt1
Format: binding
Measurement Setup: co-incubation with Akt1, Figure S1
Property Label: covalent binding to Akt1 (mass increase by LC-MS)

INSERT INTO measurements (smiles_data, obs_value) VALUES
  ('C=CC(=O)Nc1cccc(-c2cn(C3CCN(Cc4ccc(-c5nc6cc[nH]c(=O)c6cc5-c5ccccc5)cc4)CC3)nn2)c1', 'covalent binders'),
  ('C=CC(=O)Nc1ccc2[nH]c(=O)n(C3CCN(Cc4ccc(-c5nc6ccccn6c5-c5ccccc5)cc4)CC3)c2c1', 'covalent binders'),
  ('C=CC(=O)Nc1cc2c(cc1Cl)[nH]c(=O)n2C1CCN(Cc2ccc(-c3nc4ccccn4c3-c3ccccc3)cc2)CC1', 'covalent binders');

----------
Tgt: Akt1 (Homo sapiens, UniProt P31749)
Sequence (P31749 whole entry): as above
Experiment Description: HTRF KinEASE assay, IC50 against Akt1
Measurement Setup: IC50 Akt1, wild-type Akt1; mean ± SD, n=3
pIC50: −log10 of the molar value.
In this section, each of the compounds is paired with its reported pIC50.
Property Label: pIC50

INSERT INTO measurements (compound, limit_sign, obs_value) VALUES
  ('C=CC(=O)Nc1cccc(-c2cn(C3CCN(Cc4ccc(-c5nc6ccccn6c5-c5ccccc5C)cc4)CC3)nn2)c1 [Compound 7]', '<', 4.70),
  ('C=CC(=O)Nc1cc2c(cc1Cl)[nH]c(=O)n2C1CCN(Cc2ccc(-c3nc4ccccn4c3-c3ccccc3)cc2)CC1 [Compound 12]', '=', 7.54),
  ('C=CC(=O)Nc1ccccc1-c1cn(C2CCN(Cc3ccc(-c4nc5ccccn5c4-c4ccccc4)cc3)CC2)nn1 [Compound 4]', '=', 6.03),
  ('C=CC(=O)Nc1ccc(-c2cn(C3CCN(Cc4ccc(-c5nc6ccccn6c5-c5ccccc5)cc4)CC3)nn2)cc1 [Compound 5]', '=', 5.54),
  ('C=CC(=O)Nc1ccc(-c2cn(C3CCN(Cc4ccc(-c5nc6ccccn6c5-c5ccccc5C)cc4)CC3)nn2)cc1 [Compound 8]', '<', 4.70),
  ('C=CC(=O)Nc1cccc(-c2cn(C3CCN(Cc4ccc(-c5nc6ccccn6c5-c5cccc(C)c5)cc4)CC3)nn2)c1 [Compound 9]', '<', 4.70),
  ('C=CC(=O)Nc1ccccc1-c1cn(C2CCN(Cc3ccc(-c4nc5ccccn5c4-c4ccccc4C)cc3)CC2)nn1 [Compound 6]', '<', 4.70),
  ('C=CC(=O)Nc1cccc(-c2cn(C3CCN(Cc4ccc(-c5nc6ccc(C)cn6c5-c5ccccc5)cc4)CC3)nn2)c1 [Compound 10]', '=', 5.33),
  ('C=CC(=O)Nc1cccc(-c2cn(C3CCN(Cc4ccc(-c5nc6cc[nH]c(=O)c6cc5-c5ccccc5)cc4)CC3)nn2)c1 [Compound 13]', '=', 8.15),
  ('C=CC(=O)Nc1ccc2[nH]c(=O)n(C3CCN(Cc4ccc(-c5nc6ccccn6c5-c5ccccc5)cc4)CC3)c2c1 [Compound 11]', '=', 7.47);

----------
In this section, each of the compounds is paired with its reported pKi.
Tgt: Akt1 (Homo sapiens)
Experiment Description: Kinetic analysis with HTRF KinEASE (time-dependent IC50), kinetic parameters of inactivation
Measurement Setup: inhibition constant of inactivation, mean ± SD, n=3
pKi: −log10 of the molar value.
Property Label: pKi

INSERT INTO measurements (compound, obs_value) VALUES
  ('C=CC(=O)Nc1ccc2[nH]c(=O)n(C3CCN(Cc4ccc(-c5nc6ccccn6c5-c5ccccc5)cc4)CC3)c2c1 [Compound 11]', 7.57),
  ('C=CC(=O)Nc1cccc(-c2cn(C3CCN(Cc4ccc(-c5nc6cc[nH]c(=O)c6cc5-c5ccccc5)cc4)CC3)nn2)c1 [Compound 13]', 7.98),
  ('C=CC(=O)Nc1cc2c(cc1Cl)[nH]c(=O)n2C1CCN(Cc2ccc(-c3nc4ccccn4c3-c3ccccc3)cc2)CC1 [Compound 12]', 7.61),
  ('C=CC(=O)Nc1cccc(-c2cn(C3CCN(Cc4ccc(-c5nc6ccccn6c5-c5ccccc5)cc4)CC3)nn2)c1 [Compound 3]', 6.30);

----------
In this section, each of the compounds is paired with its reported pIC50.
Tgt: Akt1 (Homo sapiens)
Experiment Description: HTRF KinEASE assay, IC50 against Akt1
Measurement Setup: IC50, Akt1; repeated in Table 2 for comparison; mean ± SD, n=3
pIC50: −log10 of the molar value.
Property Label: pIC50

INSERT INTO results (smiles_data, obs_value) VALUES
  ('C=CC(=O)Nc1cccc(-c2cn(C3CCN(Cc4ccc(-c5nc6cc[nH]c(=O)c6cc5-c5ccccc5)cc4)CC3)nn2)c1', 8.15),
  ('C=CC(=O)Nc1ccc2[nH]c(=O)n(C3CCN(Cc4ccc(-c5nc6ccccn6c5-c5ccccc5)cc4)CC3)c2c1', 7.47),
  ('C=CC(=O)Nc1cc2c(cc1Cl)[nH]c(=O)n2C1CCN(Cc2ccc(-c3nc4ccccn4c3-c3ccccc3)cc2)CC1', 7.54);

----------
Tgt: Akt1 (Homo sapiens)
Experiment Description: Kinetic analysis with HTRF KinEASE (time-dependent IC50), kinetic parameters of inactivation
Type: biochemical
Parameters: purchased ProQinase
Measurement Setup: mean ± SD, n=3
Property Label: k inact/K I (M⁻¹ s⁻¹)

INSERT INTO results (compound, tgt, quantity_unit, obs_value) VALUES
  ('C=CC(=O)Nc1cccc(-c2cn(C3CCN(Cc4ccc(-c5nc6ccccn6c5-c5ccccc5)cc4)CC3)nn2)c1 [Compound 3]', 'Akt1 (Homo sapiens)', 'M⁻¹ s⁻¹', 2000),
  ('C=CC(=O)Nc1ccc2[nH]c(=O)n(C3CCN(Cc4ccc(-c5nc6ccccn6c5-c5ccccc5)cc4)CC3)c2c1 [Compound 11]', 'Akt1 (Homo sapiens)', 'M⁻¹ s⁻¹', 43000),
  ('C=CC(=O)Nc1cccc(-c2cn(C3CCN(Cc4ccc(-c5nc6cc[nH]c(=O)c6cc5-c5ccccc5)cc4)CC3)nn2)c1 [Compound 13]', 'Akt1 (Homo sapiens)', 'M⁻¹ s⁻¹', 66000),
  ('C=CC(=O)Nc1cc2c(cc1Cl)[nH]c(=O)n2C1CCN(Cc2ccc(-c3nc4ccccn4c3-c3ccccc3)cc2)CC1 [Compound 12]', 'Akt1 (Homo sapiens)', 'M⁻¹ s⁻¹', 55000);
